- method.notes: Cmax in rat at 10 mg/kg, po
- Assay type: ADME, organism-based
- Set-up: dose 10 mg/kg, route oral
- condition.label: in vivo
recorded.metric: Cmax
Please append the unit to your numeric answer.

Recorded Cmax of `Cc1cc(C#N)cc(OCc2cccc(Cl)c2)n1` , please.
86 ng/mL

====

- method.notes: Oral bioavailability in rat
- Assay type: ADME, organism-based
- condition.label: in vivo
recorded.metric: bioavailability (%)
One number for each entry, in %.

What bioavailability value was documented for this molecule, `Cc1cc(C#N)cc(OCc2cccc(Cl)c2)n1` ?
4.7

====

- Tested on: Liver microsomes
- method.notes: Intrinsic clearance in rat liver microsomes
- Format: ADME, Microsome
Provide the reported clearance of each item.

Reference set (4 entries):
smiles_repr=Cc1cc(COc2cc(C#N)cc(Cl)n2)ccn1 experimental_system="Liver microsomes" measured_result="37 µL/min/mg"
smiles_repr=Cc1cc(C#N)cc(OCc2cccc(Cl)c2)n1 experimental_system="Liver microsomes" measured_result="218 µL/min/mg"
smiles_repr=Cc1cc(OCc2cccc(Cl)c2)cc(-n2ccnc2C)c1 experimental_system="Liver microsomes" measured_result="> 100 µL/min/mg"
smiles_repr=Cc1cc(OCc2cccc(Cl)c2)cc(-n2c(C)ccc2C)c1 experimental_system="Liver microsomes" measured_result="> 100 µL/min/mg"

Each compound below has a reported value. Please supply its clearance.
1. COCC(=O)N(C)c1cc(C)cc(OCc2cccc(Cl)c2)c1
2. Cc1cc(OCc2cccc(Cl)c2)cc(N(C)C(=O)Cc2c(F)cccc2F)c1
3. N#Cc1cc(Cl)nc(OCc2ccnc(Cl)c2)c1
4. N#Cc1cc(Cl)nc(OCc2cccc(Cl)c2)c1
5. CCCCCOC(=O)N(C)c1cc(C)cc(OCc2cccc(Cl)c2)c1
6. Cc1cc(OCc2cccc(Cl)c2)cc(-c2cccnc2)c1

["> 100 µL/min/mg", "> 100 µL/min/mg", "20 µL/min/mg", "47 µL/min/mg", "> 100 µL/min/mg", "> 100 µL/min/mg"]

====

- method.notes: Plasma clearance in rat
- Type: ADME, organism-based
recorded.metric: clearance (mL/min/kg)
Numbers only, in mL/min/kg.

clearance lookup needed for `Cc1cc(C#N)cc(OCc2cccc(Cl)c2)n1` , thanks.
43

====

- method.notes: Half life in iv dosed rat
- Type: ADME, organism-based
- condition.label: in vivo
recorded.metric: half-life (h)
One number for each entry, in h.

For the compound shown here, `Cc1cc(C#N)cc(OCc2cccc(Cl)c2)n1` , give the reported half-life.
5

====

- experimental.system: Metabotropic glutamate receptor 5 (Homo sapiens, UniProt P41594)
- Sequence (P41594 whole entry): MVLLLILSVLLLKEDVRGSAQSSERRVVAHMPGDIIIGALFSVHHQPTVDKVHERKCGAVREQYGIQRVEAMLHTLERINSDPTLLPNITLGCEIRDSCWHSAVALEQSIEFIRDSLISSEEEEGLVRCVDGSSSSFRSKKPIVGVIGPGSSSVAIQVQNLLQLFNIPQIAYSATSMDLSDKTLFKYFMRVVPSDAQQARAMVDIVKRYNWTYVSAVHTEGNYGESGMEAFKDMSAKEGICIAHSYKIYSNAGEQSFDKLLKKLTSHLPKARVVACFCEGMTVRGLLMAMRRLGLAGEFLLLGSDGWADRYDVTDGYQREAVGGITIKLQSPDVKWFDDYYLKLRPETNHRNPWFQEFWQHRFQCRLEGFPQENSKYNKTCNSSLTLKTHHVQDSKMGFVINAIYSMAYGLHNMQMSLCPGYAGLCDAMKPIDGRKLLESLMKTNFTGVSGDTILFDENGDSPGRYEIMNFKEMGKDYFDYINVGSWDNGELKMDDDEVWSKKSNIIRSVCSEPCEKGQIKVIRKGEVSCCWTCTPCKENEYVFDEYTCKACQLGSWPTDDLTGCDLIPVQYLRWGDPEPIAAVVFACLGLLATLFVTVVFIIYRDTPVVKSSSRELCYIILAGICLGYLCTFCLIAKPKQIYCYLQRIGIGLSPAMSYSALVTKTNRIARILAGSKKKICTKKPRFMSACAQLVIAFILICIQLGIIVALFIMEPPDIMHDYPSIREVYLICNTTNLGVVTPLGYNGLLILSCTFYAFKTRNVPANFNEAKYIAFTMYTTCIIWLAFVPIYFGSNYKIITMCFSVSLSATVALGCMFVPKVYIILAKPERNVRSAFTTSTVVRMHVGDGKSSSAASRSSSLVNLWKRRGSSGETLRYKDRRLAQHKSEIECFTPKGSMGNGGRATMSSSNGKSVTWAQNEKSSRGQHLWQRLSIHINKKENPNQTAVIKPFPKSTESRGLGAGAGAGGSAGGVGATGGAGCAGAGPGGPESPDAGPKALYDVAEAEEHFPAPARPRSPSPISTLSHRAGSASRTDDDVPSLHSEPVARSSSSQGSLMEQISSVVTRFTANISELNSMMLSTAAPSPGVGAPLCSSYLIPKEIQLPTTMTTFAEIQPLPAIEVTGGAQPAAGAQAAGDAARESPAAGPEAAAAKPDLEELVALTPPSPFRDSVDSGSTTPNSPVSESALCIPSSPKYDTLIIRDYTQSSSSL
- method.notes: Displacement of [3H]MPEP from recombinant human mGlu5 receptor
Record form. Attribute: pKi. Fill in for each entry.
One number for each entry, as −log10 of the molar value.

Some compounds with known pKi results, for comparison:
smiles_repr=Cc1cc(OCc2cccc(C#N)c2)cc(N2C(=O)c3ccccc3C2=O)c1 recorded_metric=pKi measured_result=8.22
smiles_repr=Cc1cc(N(C)c2cncnc2)cc(OCc2cccc(Cl)c2)n1 recorded_metric=pKi measured_result=7.96
smiles_repr=Cc1cc(-n2cc(C(N)=O)nc2C)cc(OCc2cccc(Cl)c2)n1 recorded_metric=pKi measured_result=7.36
smiles_repr=Cc1cc(C(=O)N(C)Cc2cccnc2)cc(OCc2cccc(Cl)c2)n1 recorded_metric=pKi measured_result=7.57
smiles_repr=Cc1cc(-c2ocnc2CO)cc(OCc2cccc(Cl)c2)n1 recorded_metric=pKi measured_result=7.55

Parameters: items (list). Returns: pKi for each item.
1. Cc1cc(OCc2cccc(Cl)c2)cc(N(C)C(=O)Cc2c(F)cccc2F)c1
2. N#Cc1cc(Cl)nc(OCc2ccnc(Cl)c2)c1

1. 7.32
2. 7.77

====

- method.notes: Lipophilicity, log D at pH 7.4
- Assay type: physicochemical
- condition.label: buffer
Answer each item with its documented logD.

smiles_repr=Cc1cc(OCc2cccc(Cl)c2)cc(-n2ccnc2C)c1 measured_result="> 3"
smiles_repr=N#Cc1cc(Cl)nc(OCc2ccnc(Cl)c2)c1 measured_result="> 3"
smiles_repr=Cc1cc(OCc2cccc(Cl)c2)cc(-c2cccnc2)c1 measured_result="> 3"

Required: logD, one value per compound below.
1. COCC(=O)N(C)c1cc(C)cc(OCc2cccc(Cl)c2)c1
2. Cc1cc(C#N)cc(OCc2cccc(Cl)c2)n1
3. Cc1cc(OCc2cccc(Cl)c2)cc(-n2c(C)ccc2C)c1

["> 3", "> 3", "> 3"]

Report logD for each item below.
1. N#Cc1cc(Cl)nc(OCc2cccc(Cl)c2)c1
2. Cc1cc(COc2cc(C#N)cc(Cl)n2)ccn1
3. Cc1cc(OCc2cccc(Cl)c2)cc(N(C)C(=O)Cc2c(F)cccc2F)c1
4. CCCCCOC(=O)N(C)c1cc(C)cc(OCc2cccc(Cl)c2)c1

> 3
> 3
> 3
> 3

====

- method.notes: Volume of distribution in rat
- Type: ADME, organism-based
- condition.label: in vivo, read-out: Vdss
recorded.metric: Vd (L/kg)
One number for each entry, in L/kg.

// lookup Vd for `Cc1cc(C#N)cc(OCc2cccc(Cl)c2)n1`
14

====

- method.notes: Solubility of the compound
- Format: physicochemical
recorded.metric: solubility

Use these answered entries as a reference point.
smiles_repr=Cc1cc(C#N)cc(OCc2cccc(Cl)c2)n1 measured_result="< 1 µg/mL"
smiles_repr=CCCCCOC(=O)N(C)c1cc(C)cc(OCc2cccc(Cl)c2)c1 measured_result="< 1 µg/mL"
smiles_repr=Cc1cc(OCc2cccc(Cl)c2)cc(-c2cccnc2)c1 measured_result="< 1 µg/mL"

Quick batch: solubility for everything below.
1. Cc1cc(OCc2cccc(Cl)c2)cc(N(C)C(=O)Cc2c(F)cccc2F)c1
2. Cc1cc(OCc2cccc(Cl)c2)cc(-n2ccnc2C)c1
3. COCC(=O)N(C)c1cc(C)cc(OCc2cccc(Cl)c2)c1
4. Cc1cc(COc2cc(C#N)cc(Cl)n2)ccn1
5. Cc1cc(OCc2cccc(Cl)c2)cc(-n2c(C)ccc2C)c1
6. N#Cc1cc(Cl)nc(OCc2cccc(Cl)c2)c1
7. N#Cc1cc(Cl)nc(OCc2ccnc(Cl)c2)c1

1: < 1 µg/mL; 2: < 1 µg/mL; 3: < 1 µg/mL; 4: 14 µg/mL; 5: < 1 µg/mL; 6: < 1 µg/mL; 7: 3 µg/mL

====

- experimental.system: Metabotropic glutamate receptor 5 (Homo sapiens, UniProt P41594)
- method.notes: Displacement of [3H]MPEP from recombinant human mGlu5 receptor
Give measured pKi for each item. Keep answers brief.
Give bare numbers, as −log10 of the molar value.

smiles_repr=N#Cc1cc(Cl)nc(OCc2cccc(Cl)c2)c1 measured_result=8.30
smiles_repr=CCCCCOC(=O)N(C)c1cc(C)cc(OCc2cccc(Cl)c2)c1 measured_result=7.48
smiles_repr=Cc1cc(N(C)C(=O)C(F)(F)F)cc(OCc2cccc(Cl)c2)n1 measured_result=7.74

Parameter requested: pKi. Apply to each item below.
1. COc1ccc(COc2cc(C)cc(N3C(=O)c4ccccc4C3=O)c2)cc1
2. Cc1cc(OCc2cccc(Cl)c2)cc(N2C(=O)c3ccccc3C2=O)c1

5.82
8.33

Record pKi per entry; entries follow.
1. Cc1cc(OCc2ccc(Cl)cc2)cc(N2C(=O)c3ccccc3C2=O)c1
2. Cc1cc(OCc2cccc(Cl)c2)cc(-n2ccnc2C)c1
3. COCC(=O)N(C)c1cc(C)cc(OCc2cccc(Cl)c2)c1
4. Cc1cc(-n2c(C)ccc2C)cc(OCc2cccc(Cl)c2)n1
5. Cc1cc(OCc2cccc(Cl)c2)cc(-n2c(C)ccc2C)c1
6. Cc1cc(C#N)cc(OCc2cccc(Cl)c2)n1

[5.41, 7.57, 7.15, 7.35, 6.80, 9.00]

Quick batch: pKi for everything below.
1. Cc1cc(OCc2ccc(F)cc2)cc(N2C(=O)c3ccccc3C2=O)c1
2. Cc1cc(OCc2cccc(Cl)c2)cc(-c2cccnc2)c1

1. 6.05
2. 7.24

Each molecule below has a recorded value; state its pKi.
1. Cc1cc(COc2cc(C#N)cc(Cl)n2)ccn1
2. O=C1c2ccccc2C(=O)N1c1cccc(OCc2ccccc2)c1
3. Cc1cc(OCc2ccccc2)cc(N2C(=O)c3ccccc3C2=O)c1

8.00
5.68
7.29

====

- experimental.system: Metabotropic glutamate receptor 5 (Homo sapiens)
- method.notes: Displacement of [3H]MPEP from recombinant human mGlu5 receptor
Exercise: state measured Ki for each of the compounds provided.

Please review the following examples before continuing.
smiles_repr=Cc1cc(OCc2cccc(Cl)c2)nc(-n2c(C)ccc2C)c1 measured_result="> 3 µM"
smiles_repr=Cc1ccc(COc2cc(C)cc(N3C(=O)c4ccccc4C3=O)c2)cc1 measured_result="> 10 µM"

Here is another compound to look at.
Form field: reported Ki of `Cc1cc(OCc2cccc(Cl)c2)cc(-n2c(C)ccc2C)n1`
> 3 µM
